tested on: chronic lymphocytic leukemia (CLL) cells; assay: viability/apoptosis of CLL cells electroporated with peptides (Annexin V-FITC/PI flow cytometry); format: cell-based, human; conditions: CLL patient sample TJK 340 #1; peptide electroporated
Where no end group is shown, it is not given here.
Property label: cell viability (Induction of Apoptosis in CLL Cells), patient sample TJK 340 #1
Include the unit right after the number.

Task: Recorded cell viability (Induction of Apoptosis in CLL Cells), patient sample TJK 340 #1 of NLWAAQRYGRELRRMADEFVDAFKK [SEQ ID NO: 2] , please.
Result: 12%

Task: Entry under review: NLWAAQRYGREARRMAAEFVDAFKK [SEQ ID NO: 4] . Reported cell viability (Induction of Apoptosis in CLL Cells), patient sample TJK 340 #1?
Result: 46%

====

Would you kindly list cell viability (Induction of Apoptosis in CLL Cells), patient sample JCB 178 for each of these sequences?
system: chronic lymphocytic leukemia (CLL) cells; experiment: viability/apoptosis of CLL cells electroporated with peptides (Annexin V-FITC/PI flow cytometry); assay type: cell-based, human; details: CLL patient sample JCB 178; peptide electroporated
Where no end group is shown, it is not given here.
Write the value in % as a bare number.

Task: Given NLWAAQRYGREARRMAAEFVDAFKK [SEQ ID NO: 4] , state its recorded cell viability (Induction of Apoptosis in CLL Cells), patient sample JCB 178.
Result: 38

Task: Give its cell viability (Induction of Apoptosis in CLL Cells), patient sample JCB 178 value. Item: NLWAAQRYGRELRRMADEFVDAFKK [SEQ ID NO: 2]
Result: 12
